target: T. cruzi glucokinase (TcGlcK) (Trypanosoma cruzi); type: biochemical; conditions: LE = −RTlnKi/N, N non-hydrogen atoms; TcGlcK inhibition
property: LE (ligand efficiency) (kcal/mol)
Give your result in kcal/mol as a bare value.

## Input Any idea what LE (ligand efficiency) was measured for O=C(CCc1ccc(O)cc1)N[C@H]1C(O)O[C@H](CO)[C@@H](O)[C@@H]1O (stereo partly shown) ?
## Output 0.35

## Input Try O=C(N[C@H]1C(O)O[C@H](CO)[C@@H](O)[C@@H]1O)OCc1ccccc1 (stereo partly shown) next.
## Output 0.38

## Input What do we get for O=C(N[C@H]1C(O)O[C@H](CO)[C@@H](O)[C@@H]1O)c1ccccc1 (stereo partly shown) ?
## Output 0.30

## Input Would you kindly repeat that for O=C(N[C@H]1C(O)O[C@H](CO)[C@@H](O)[C@@H]1O)OCC1=Cc2ccccc2S1(=O)=O (stereo partly shown) ?
## Output 0.27
